Exercise: state measured IC50 for each of the molecules provided.
System: healthy human lung cells (MRC9)
EXPERIMENTAL_DETAILS: CellTiter-Blue cell viability, MRC9
Assay type: cell-based
COND: non-cancerous, 72 hours
Description: The anti-cancer efficacy of exemplary compounds of the application were assessed in vitro against different cancer cell lines. […] Afterwards, the plates were shaken for 10 seconds and florescence was recorded at 560/590 nm using a Cytation 3 spectrophotometer. IC50 values were determined using non-linear regression analysis with GraphPad Prism 6.0 (GraphPad Software Inc.).
Reply numerically in µM, unit not repeated.

Input line: Endpoint output: IC50 of `O=S(=O)(c1c(F)c(F)c(F)c(F)c1F)N(Cc1ccc(Cl)cc1)C1CC1` . Value?
Output line: 16.4

Input line: What do you get for `CC(C)N(Cc1ccc(F)cc1)S(=O)(=O)c1c(F)c(F)c(F)c(F)c1F` ?
Output line: 25

Input line: What do you get for `O=S(=O)(c1c(F)c(F)c(F)c(F)c1F)N(Cc1c(F)cc(F)cc1F)C1CCC1` ?
Output line: 15.7

Input line: What do you get for `O=S(=O)(c1c(F)c(F)c(F)c(F)c1F)N(Cc1c(F)cc(F)cc1F)C1CC1` ?
Output line: 26
